Cited source: ChEMBL document CHEMBL3352566

# ASSAY_SYSTEM: Adenosine receptor A3 (Homo sapiens, UniProt P0DMS8)
# Sequence (P0DMS8 whole entry): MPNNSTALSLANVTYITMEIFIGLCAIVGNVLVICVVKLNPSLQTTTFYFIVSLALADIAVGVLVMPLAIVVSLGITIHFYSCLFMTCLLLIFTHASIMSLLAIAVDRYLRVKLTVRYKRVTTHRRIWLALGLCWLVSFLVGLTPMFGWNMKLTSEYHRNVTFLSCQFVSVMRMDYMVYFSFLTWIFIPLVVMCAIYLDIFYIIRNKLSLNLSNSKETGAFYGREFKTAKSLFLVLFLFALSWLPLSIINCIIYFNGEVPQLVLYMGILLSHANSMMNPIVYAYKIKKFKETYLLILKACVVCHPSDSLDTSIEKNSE
# PROTOCOL_DETAILS: Binding affinity to human A3AR
MEASURED_PARAMETER: pKi
By convention, pKi is the negative base-10 log of a molar concentration.

Please report the recorded pKi for O=[N+]([O-])c1cccc(C2CC2Nc2nc(C#Cc3ccccc3)nc3c2ncn3[C@@H]2O[C@H](CO)[C@@H](O)[C@H]2O)c1 (mixture of isomers) .
7.95

====

Measured inhibition, listed per entry.
# ASSAY_SYSTEM: Adenosine receptor A1 (Homo sapiens) (UniProt P30542)
# Sequence (P30542 whole entry): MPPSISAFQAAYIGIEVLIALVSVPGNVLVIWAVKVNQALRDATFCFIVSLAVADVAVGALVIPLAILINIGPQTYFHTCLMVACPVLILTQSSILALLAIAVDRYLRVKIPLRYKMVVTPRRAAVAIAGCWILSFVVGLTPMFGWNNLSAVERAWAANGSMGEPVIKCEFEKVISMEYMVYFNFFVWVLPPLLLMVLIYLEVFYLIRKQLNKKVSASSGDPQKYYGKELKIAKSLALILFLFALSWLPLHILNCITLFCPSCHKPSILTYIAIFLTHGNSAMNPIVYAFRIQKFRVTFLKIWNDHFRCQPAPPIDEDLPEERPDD
# PROTOCOL_DETAILS: Displacement of [3H]N6-R-phenylisopropyladenosine from human A1AR expressed in CHO cells at 10 uM after 60 mins by scintillation counting analysis
# Format: cell-based
Number only, in %; omit the unit.

Check out these entries, answers already filled in.
MOLECULE	MEASURED_PARAMETER	REPORTED_RESULT
CNC(=O)[C@@]12C[C@@H]1[C@@H](n1cnc3c(NC4CC4c4ccccc4)nc(C#Cc4ccccc4)nc31)[C@H](O)[C@@H]2O (mixture of isomers)	inhibition	2
CNC(=O)[C@@]12C[C@@H]1[C@@H](n1cnc3c(N[C@H]4C[C@@H]4c4ccc(F)c(F)c4)nc(C#Cc4ccccc4)nc31)[C@H](O)[C@@H]2O	inhibition	16
CNC(=O)[C@@]12C[C@@H]1[C@@H](n1cnc3c(N)nc(C#Cc4ccccc4)nc31)[C@H](O)[C@@H]2O	inhibition	28
CNC(=O)[C@@]12C[C@@H]1[C@@H](n1cnc3c(NC4CC4c4ccc(F)c(F)c4)nc(C#Cc4ccccc4)nc31)[C@H](O)[C@@H]2O (mixture of isomers)	inhibition	11

Please report the recorded inhibition for CNC(=O)[C@@]12C[C@@H]1[C@@H](n1cnc3c(NC4CC4c4cccc(Br)c4)nc(C#Cc4ccccc4)nc31)[C@H](O)[C@@H]2O (mixture of isomers) .
17

Please report the recorded inhibition for CNC(=O)[C@@]12C[C@@H]1[C@@H](n1cnc3c(N[C@@H]4C[C@H]4c4ccc(F)c(F)c4)nc(C#Cc4ccccc4)nc31)[C@H](O)[C@@H]2O .
11

Please report the recorded inhibition for CNC(=O)[C@@]12C[C@@H]1[C@@H](n1cnc3c(N[C@@H]4C[C@H]4c4ccc(F)c(F)c4)nc(C#Cc4ccccn4)nc31)[C@H](O)[C@@H]2O .
19

Please report the recorded inhibition for CNC(=O)[C@@]12C[C@@H]1[C@@H](n1cnc3c(NC4CC4c4cccc(F)c4)nc(C#Cc4ccccc4)nc31)[C@H](O)[C@@H]2O (mixture of isomers) .
18

Please report the recorded inhibition for CNC(=O)[C@@]12C[C@@H]1[C@@H](n1cnc3c(NC4CC4c4cccc(Cl)c4)nc(C#Cc4ccccc4)nc31)[C@H](O)[C@@H]2O (mixture of isomers) .
6

Please report the recorded inhibition for CNC(=O)[C@@]12C[C@@H]1[C@@H](n1cnc3c(N[C@H]4C[C@@H]4c4ccc(F)c(F)c4)nc(C#Cc4ccccn4)nc31)[C@H](O)[C@@H]2O .
26

Please report the recorded inhibition for CNC(=O)[C@@]12C[C@@H]1[C@@H](n1cnc3c(NC4CC4c4cccc(C)c4)nc(C#Cc4ccccc4)nc31)[C@H](O)[C@@H]2O (mixture of isomers) .
8
